All values here come from patent US20240239785A1.

Biological target: IKZF2 (Homo sapiens, UniProt Q96SW2+Q9UKS7)
Construct: endogenous in cells; host or cells: MOLT4 (CRISPR/Cas9 HiBit knock-in at the IKZF2 locus)
Sequence (Q9UKS7 whole entry): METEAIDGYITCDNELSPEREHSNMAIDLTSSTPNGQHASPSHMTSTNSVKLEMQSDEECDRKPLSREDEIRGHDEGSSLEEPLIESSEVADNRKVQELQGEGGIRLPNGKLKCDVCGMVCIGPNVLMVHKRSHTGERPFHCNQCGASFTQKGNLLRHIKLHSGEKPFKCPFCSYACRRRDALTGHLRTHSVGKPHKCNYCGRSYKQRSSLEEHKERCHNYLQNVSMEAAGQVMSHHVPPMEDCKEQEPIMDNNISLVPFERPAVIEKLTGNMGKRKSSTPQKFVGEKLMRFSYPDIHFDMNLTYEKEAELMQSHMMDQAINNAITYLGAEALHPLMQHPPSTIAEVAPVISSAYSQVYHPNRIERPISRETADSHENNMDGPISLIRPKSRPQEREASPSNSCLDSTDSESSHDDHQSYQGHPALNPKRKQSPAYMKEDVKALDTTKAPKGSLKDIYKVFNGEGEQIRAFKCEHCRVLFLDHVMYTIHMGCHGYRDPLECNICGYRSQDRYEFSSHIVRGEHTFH
Sequence (Q96SW2 whole entry): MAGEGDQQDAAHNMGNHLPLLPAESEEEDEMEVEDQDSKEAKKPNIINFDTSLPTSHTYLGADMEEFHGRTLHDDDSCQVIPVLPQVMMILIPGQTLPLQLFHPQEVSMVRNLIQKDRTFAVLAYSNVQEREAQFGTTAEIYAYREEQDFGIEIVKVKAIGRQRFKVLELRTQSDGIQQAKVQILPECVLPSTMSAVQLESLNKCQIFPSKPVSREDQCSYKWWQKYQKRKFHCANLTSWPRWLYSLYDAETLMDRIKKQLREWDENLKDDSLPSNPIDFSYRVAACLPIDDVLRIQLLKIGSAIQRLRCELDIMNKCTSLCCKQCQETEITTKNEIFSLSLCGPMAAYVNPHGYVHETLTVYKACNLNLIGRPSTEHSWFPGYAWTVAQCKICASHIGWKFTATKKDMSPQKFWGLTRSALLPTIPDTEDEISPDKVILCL
Sequence (Q16531 whole entry partner): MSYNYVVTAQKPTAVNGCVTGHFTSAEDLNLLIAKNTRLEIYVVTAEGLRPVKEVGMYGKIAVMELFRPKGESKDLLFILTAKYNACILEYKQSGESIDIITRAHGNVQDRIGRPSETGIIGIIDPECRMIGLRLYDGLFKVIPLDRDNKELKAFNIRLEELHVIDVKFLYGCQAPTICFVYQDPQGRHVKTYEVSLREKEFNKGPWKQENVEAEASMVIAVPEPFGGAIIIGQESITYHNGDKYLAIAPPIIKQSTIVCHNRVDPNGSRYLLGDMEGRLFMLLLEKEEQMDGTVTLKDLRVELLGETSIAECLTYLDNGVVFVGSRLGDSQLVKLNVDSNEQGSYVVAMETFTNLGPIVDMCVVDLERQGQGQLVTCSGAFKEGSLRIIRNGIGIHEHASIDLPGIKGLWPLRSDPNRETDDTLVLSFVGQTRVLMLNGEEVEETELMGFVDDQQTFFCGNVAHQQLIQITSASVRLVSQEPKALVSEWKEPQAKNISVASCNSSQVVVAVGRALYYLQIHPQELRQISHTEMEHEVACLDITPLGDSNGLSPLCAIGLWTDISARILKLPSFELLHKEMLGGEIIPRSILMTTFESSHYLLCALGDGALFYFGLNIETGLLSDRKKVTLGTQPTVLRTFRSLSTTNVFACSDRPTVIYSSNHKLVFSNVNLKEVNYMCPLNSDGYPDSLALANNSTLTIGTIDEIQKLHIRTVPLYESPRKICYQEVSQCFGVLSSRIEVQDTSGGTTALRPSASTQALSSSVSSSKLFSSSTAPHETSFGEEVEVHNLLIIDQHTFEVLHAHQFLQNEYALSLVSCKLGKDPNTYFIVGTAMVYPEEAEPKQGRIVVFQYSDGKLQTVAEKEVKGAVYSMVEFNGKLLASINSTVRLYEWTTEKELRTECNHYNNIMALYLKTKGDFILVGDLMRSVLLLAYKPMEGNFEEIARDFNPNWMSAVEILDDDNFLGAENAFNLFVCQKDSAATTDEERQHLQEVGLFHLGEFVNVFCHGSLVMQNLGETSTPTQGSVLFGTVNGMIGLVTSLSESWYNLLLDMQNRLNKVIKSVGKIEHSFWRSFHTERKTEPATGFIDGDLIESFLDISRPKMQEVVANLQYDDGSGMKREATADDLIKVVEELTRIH
Assay: MOLT4 IKZF2 HiBit assay
Assay type: cell-based
Conditions: MOLT4 IKZF2 HiBit cells, 6 hours incubation, 10-point dose response from 30 μM
Where a name gives a salt, the structure may show the parent alone.
DC50 strictly under 9 nM means YES; at 9 nM or over means NO.

compound | system | label_class
O=C1CCC(N2C(=O)c3ccc(C4(O)CCN(Cc5ccc(F)c(F)c5)CC4)cc3C2=O)C(=O)N1 (stereo not shown) [Compound 60, HCl salt] | IKZF2 (Homo sapiens, UniProt Q96SW2+Q9UKS7) | YES
O=C1CCC(N2C(=O)c3ccc(C4(O)CCN(Cc5ccc(F)cc5)CC4)c(F)c3C2=O)C(=O)N1 (stereo not shown) | IKZF2 (Homo sapiens, UniProt Q96SW2+Q9UKS7) | YES
O=C1CCC(N2C(=O)c3ccc(C4(O)CCN(Cc5ccc6[nH]ccc6c5)CC4)cc3C2=O)C(=O)N1 (stereo not shown) [Compound 144, formic acid salt] | IKZF2 (Homo sapiens, UniProt Q96SW2+Q9UKS7) | NO

# strict comparison: is reported DC50 < 9 nM? input = Cn1ncc2ccc(CN3CCC(O)(c4ccc5c(c4)C(=O)N(C4CCC(=O)NC4=O)C5=O)CC3)cc21 (stereo not shown) [Compound 140, formic acid salt]
YES

# strict comparison: is reported DC50 < 9 nM? input = O=C1CCC(N2C(=O)c3ccc(C4(O)CCN(Cc5ccccn5)CC4)cc3C2=O)C(=O)N1 (stereo not shown) [Compound 68, HCl salt]
NO

# strict comparison: is reported DC50 < 9 nM? input = O=C1CCC(N2C(=O)c3ccc(C4(O)CCN(Cc5ccc(-c6nccs6)cc5)CC4)cc3C2=O)C(=O)N1 (stereo not shown) [Compound 147, HCl salt]
YES
